MEASUREMENT_NOTES: AP1 Signaling Pathway (AID 357);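 further: ME-180 reporter cells stimulated with EGF at its EC50 level; on the % scale 0 is the no-effect control and ±100 the full control effect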
STATED_CONDITIONS: ME-180 AP-1-bla reporter, EGF-induced, beta-lactamase ratio, 5 h; at 17.2 µM (top of the series) unless noted
Records with an inconclusive call do not appear. Active and inactive are the calls of the source. The call rests on the fitted dose curve; in most records, active means well fitted curve in either direction with a large enough effect (not every such curve was filed as active); inconclusive means small, poorly fitted or top-dose-only effect, or another doubt; inactive means flat fitted curve, though single readings scatter.
Entries and their measured activity change, negative = inhibition follow.

Consider the compound CC(C)(C(=O)O)c1ccc([C@@H](O)CCCN2CCC(C(O)(c3ccccc3)c3ccccc3)CC2)cc1 and give its measured activity change, negative = inhibition. 8.57% [at 38 µM] (inactive)

Consider the compound Cc1ccc(Cn2ncc3c(N4CCN(Cc5ccc(Cl)cc5)CC4)ncnc32)cc1 and give its measured activity change, negative = inhibition. -8.19% (inactive)

Consider the compound COc1cc(C)cc2c(-c3c(O)cc(O)c4c3C[C@H](C)N[C@@H]4C)cc(-c3cc(-c4c(O)cc(O)c5c4C[C@H](C)N[C@@H]5C)c4cc(C)cc(OC)c4c3O)c(O)c12 and give its measured activity change, negative = inhibition. 6.28% [at 7.69 µM] (inactive)

Consider the compound Cc1ccc(-n2ncc3c(N4CCCC4)ncnc32)c(C)c1 and give its measured activity change, negative = inhibition. -15% (inactive)

Continuing:
Consider the compound N/C(CCN1CCCCC1)=N/O and give its measured activity change, negative = inhibition. 8.61% (inactive)

Consider the compound c1ccc(-n2ncc3c(NCC4CCCO4)ncnc32)cc1 (stereo unspecified) and give its measured activity change, negative = inhibition. -4.47% (inactive)

---

Test system: CP185
MEASUREMENT_NOTES: qHTS profiling for inhibitors of Plasmodium falciparum proliferation (AID 504749); further: nearly all actives have a fitted effect of over 60% in size
STATED_CONDITIONS: P. falciparum in erythrocytes, SYBR Green DNA, 72 h; series mostly up to 28.7 µM
Records with an inconclusive call do not appear. Activity calls are given as the source filed them. The call rests on the fitted dose curve; in most records, active means well fitted inhibition curve with a large enough effect; inconclusive means small, poorly fitted or top-dose-only effect; inactive means flat fitted curve, though single readings scatter.
# output must be one of TRUE = active, FALSE = inactive

Recorded call for Nc1ncn(C2C[C@H](O)[C@@H](CO)O2)c(=O)n1 (some centres undefined) ? FALSE

Recorded call for C/C1=C2/[N-]C(C(CC(N)=O)[C@@]2(C)CCC(=O)NCC(C)OP(=O)([O-])O[C@H]2[C@@H](O)[C@@H](n3cnc4cc(C)c(C)cc43)O[C@@H]2CO)[C@]2(C)N=C(/C(C)=C3N=C(/C=C4N=C1C(CCC(N)=O)C\4(C)C)[C@@H](CCC(N)=O)[C@]\3(C)CC(N)=O)[C@@H](CCC(N)=O)[C@]2(C)CC(N)=O.CC(=O)O.[Co] (some centres undefined) ? FALSE

Recorded call for NC(=O)c1ncn(C2OC(CO)C(O)C2O)c1N (centres undefined) ? FALSE

Recorded call for O=C(O)[C@H]1C[C@@H](CP(=O)(O)O)CCN1 ? FALSE

Recorded call for CCCCC/C(C=O)=C/c1ccccc1 ? FALSE

Let's switch to this compound now.
Recorded call for C[C@H]1[C@@H](OC(=O)CCC(=O)O)OC2OC3(C)CC[C@H]4[C@H](C)CC[C@@H]1[C@@]24OO3 (some centres undefined) ? TRUE

---

Entries and their measured activity, negative = inhibition follow.
MEASUREMENT_NOTES: Stat Signaling Pathway (AID 446);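 further: ME-180 cervical cancer cells given 40 pM IL-6 alongside compound; SIE-controlled beta-lactamase reporter measured as 460/530 nm FRET emission ratio; on the % scale 0 is the no-effect control and ±100 the full control effect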
STATED_CONDITIONS: ME-180 SIE beta-lactamase reporter, IL-6 stimulated, 5 h; at 17.2 µM (top of the series) unless noted
Records with an inconclusive call do not appear. The source made the active and inactive calls. The call rests on the fitted dose curve; in most records, active means well fitted curve in either direction with a large enough effect (not every such curve was filed as active); inconclusive means small, poorly fitted or top-dose-only effect, or another doubt; inactive means flat fitted curve, though single readings scatter.

Consider the molecule COc1ccc(C=NCCC2(O)CC(C)N(C)CC2C)cc1 (stereo unspecified) and give its measured activity, negative = inhibition. 11.9% (inactive)

---

MEASUREMENT_NOTES: qHTS assay for small molecule antagonists of retinoid X receptor alpha signaling (AID 588546);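 further: cells stimulated with 9-cis-retinoic acid as agonist; on the % scale 0 is the no-effect control and ±100 the full control effect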
STATED_CONDITIONS: HEK293T RXRa-UAS-bla, beta-lactamase ratio, antagonist mode; measured here: W530 green channel, cytotoxicity proxy
Results filed as inconclusive are left out.
Entries and their measured max response follow.
The answer is to be given in %; state only the numeric part.

Consider the molecule O=C1OC(O)C(C(Cl)Cl)=C1Cl (stereo unspecified) and give its measured max response. -8.4

Consider the molecule Cc1cccc(O)c1C and give its measured max response. 10.3

Turning now to a further molecule:
Consider the molecule CCCCCC/C(C=O)=C\c1ccccc1 and give its measured max response. 10.6

---

Tested on: CP191
MEASUREMENT_NOTES: qHTS profiling for inhibitors of Plasmodium falciparum proliferation (AID 504749); further: nearly all actives have a fitted effect of over 60% in size; further: potency means the concentration at half of the fitted maximal effect
STATED_CONDITIONS: P. falciparum in erythrocytes, SYBR Green DNA, 72 h; series mostly up to 28.7 µM
Inconclusive results are not listed. The source made the active and inactive calls. Calls follow the shape of the dose curve; as a rule, active = well fitted inhibition curve with a large enough effect; inconclusive = small, poorly fitted or top-dose-only effect; inactive = flat fitted curve, though single readings scatter.
REPORTED_METRIC: Potency

Please review the following examples before continuing.
Consider the compound Cc1ccccc1N1C(=O)c2cc(N)ccc2N/C1=C\F and give its measured Potency. inactive

Consider the compound NC(C(=O)O)c1ccc(O)cc1 (stereo not given) and give its measured Potency. inactive

Consider the compound COc1cccc2c1C(=O)c1c(O)c3c(c(O)c1C2=O)C[C@@](O)(C(=O)CO)C[C@@H]3OC1CC(N)C(O)C(C)O1 (stereo not given in full) and give its measured Potency. 2.24 µM (active)

Consider the compound CC[C@]1([C@H]2O[C@@H]([C@@H]3O[C@](O)(CO)[C@@H](C)C[C@H]3C)C[C@H]2C)CC[C@@H]([C@]2(C)CC[C@@]3(C[C@@H](O)[C@@H](C)[C@@H]([C@H](C)[C@H](OC)[C@H](C)C(=O)O)O3)O2)O1 and give its measured Potency. 0.0316 µM (active)

Continuing:
Consider the compound CC12C=CC(=O)C=C1[C@@H](F)CC1C2C(O)CC2(C)C1CC[C@]2(O)C(=O)CO (stereo not given in full) and give its measured Potency. inactive

---

System: CP297
MEASUREMENT_NOTES: qHTS profiling for inhibitors of Plasmodium falciparum proliferation (AID 504749); further: nearly all actives have a fitted effect of over 60% in size
STATED_CONDITIONS: P. falciparum in erythrocytes, SYBR Green DNA, 72 h; series mostly up to 28.7 µM
Records with an inconclusive call do not appear. The source made the active and inactive calls. The call rests on the fitted dose curve; in most records, active means well fitted inhibition curve with a large enough effect; inconclusive means small, poorly fitted or top-dose-only effect; inactive means flat fitted curve, though single readings scatter.
# output must be one of T (active), F (inactive)

Recorded call for O=C(O)C(O)c1ccccc1 (centres undefined) ? F

Recorded call for CC(O)C1CCC2C3CCC4CC(O)CCC4(C)C3CCC12C (centres undefined) ? F

Recorded call for CC(CCC(=O)O)C1CCC2C3C(=O)C[C@@H]4CC(=O)CC[C@@]4(C)C3CC(=O)[C@]12C (some centres undefined) ? F

Recorded call for Cc1ccc(S(=O)(=O)NC(=O)NC(C)Cc2ccccc2)cc1 (centres undefined) ? F

Recorded call for CC1(Cn2ccnn2)[C@H](C(=O)O)N2C(=O)C[C@H]2S1(=O)=O (some centres undefined) ? F

Continuing:
Recorded call for CC[C@]1([C@H]2O[C@@H]([C@@H]3O[C@](O)(CO)[C@@H](C)C[C@H]3C)C[C@H]2C)CC[C@@H]([C@]2(C)CC[C@@]3(C[C@@H](O)[C@@H](C)[C@@H]([C@H](C)[C@H](OC)[C@H](C)C(=O)O)O3)O2)O1 ? T

Recorded call for CC(C)C[C@@H](NC(=O)[C@@H](Cc1ccccc1)NC(=O)c1cnccn1)B(O)O ? T

Recorded call for COc1cccc(OC)c1C(=O)NC1C(=O)N2C1SC(C)(C)C2C(=O)O (centres undefined) ? F

Recorded call for O=C1C(I)=CC(=C(c2cc(I)c(O)c(I)c2)c2ccccc2C(=O)O)C=C1I ? F

---

MEASUREMENT_NOTES: Stat Signaling Pathway (AID 446);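 further: ME-180 cervical cancer cells given 40 pM IL-6 alongside compound; SIE-controlled beta-lactamase reporter measured as 460/530 nm FRET emission ratio; on the % scale 0 is the no-effect control and ±100 the full control effect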
STATED_CONDITIONS: ME-180 (cervical carcinoma) SIE beta-lactamase reporter, IL-6 stimulated, 5 h; at 17.2 µM (top of the series) unless noted
Records with an inconclusive call do not appear. Calls of active or inactive are those of the source. The call rests on the fitted dose curve; in most records, active means well fitted curve in either direction with a large enough effect (not every such curve was filed as active); inconclusive means small, poorly fitted or top-dose-only effect, or another doubt; inactive means flat fitted curve, though single readings scatter.
Entries and their measured activity, negative = inhibition follow.

Consider the compound CCn1c(SCC(=O)Nc2ccccc2C(=O)OC)nnc1-c1ccc(N)cc1 and give its measured activity, negative = inhibition. 0.432% (inactive)

Continuing:
Consider the compound CCCCCCOc1ccc(C(=O)n2cnc(N)n2)cc1 and give its measured activity, negative = inhibition. 27.4% (inactive)

Consider the compound N#Cc1c(N)nc(SCC(=O)NCCc2ccccc2)c(C#N)c1-c1cccs1 and give its measured activity, negative = inhibition. 5.35% (inactive)

Consider the compound CCCOc1ccc(C(C)=O)cc1CSCCC#N and give its measured activity, negative = inhibition. 85.5% (inactive)

Consider the compound CC(=O)Nc1ccc(S(=O)(=O)Nc2nc3n(n2)C(c2ccccc2)CC(=O)N3)cc1 (stereo unspecified) and give its measured activity, negative = inhibition. 1.09% (inactive)

Consider the compound c1ccc(N2CCN(c3nc(-c4ccccn4)nc4ccccc34)CC2)cc1 and give its measured activity, negative = inhibition. -14.9% (inactive)

Consider the compound COc1ccc(/C(O)=C2/C(=O)C(=O)N(CCCN(C)C)C2c2ccccc2)cc1OC (stereo unspecified) and give its measured activity, negative = inhibition. 8.71% (inactive)
